# TARGET_OR_SYSTEM: porcine pancreatic elastase (PPE) (Sus scrofa, UniProt P00772)
# Construct: purchased Sigma-Aldrich (St. Louis, MO, United States)
# Sequence (P00772 27-266): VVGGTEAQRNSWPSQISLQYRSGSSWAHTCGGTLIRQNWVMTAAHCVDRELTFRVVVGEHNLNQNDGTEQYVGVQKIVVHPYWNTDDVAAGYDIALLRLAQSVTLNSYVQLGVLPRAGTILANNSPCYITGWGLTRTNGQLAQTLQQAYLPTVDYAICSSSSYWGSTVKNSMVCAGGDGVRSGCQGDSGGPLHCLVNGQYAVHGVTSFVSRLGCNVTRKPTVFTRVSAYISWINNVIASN
# RUN_DESCRIPTION: Intrinsic fluorescence quenching of PPE: Stern-Volmer, binding constants, thermodynamics
# ASSAY_CONTEXT: 303 K
PARAMETER: ΔG (kcal/mol)

1. O=c1c(O[C@@H]2O[C@H](CO)[C@H](O)[C@H](O)[C@H]2O)c(-c2ccc(O)c(O)c2)oc2cc(O)cc(O)c12 [hyperoside]    -6.874
2. O=c1cc(-c2ccc(O)c(O)c2)oc2cc(O[C@@H]3O[C@H](CO)[C@@H](O)[C@H](O)[C@H]3O)cc(O)c12 [luteoloside]    -5.92
3. O=c1cc(-c2ccc(O)c(O)c2)oc2cc(O)cc(O)c12    -6.511
4. O=c1c(O)c(-c2ccc(O)c(O)c2)oc2cc(O)cc(O)c12    -5.208

====

# TARGET_OR_SYSTEM: porcine pancreatic elastase (PPE) (Sus scrofa, UniProt P00772)
# Construct: purchased Sigma-Aldrich (St. Louis, MO, United States)
# RUN_DESCRIPTION: Intrinsic fluorescence quenching of PPE: Stern-Volmer, binding constants, thermodynamics
# ASSAY_CONTEXT: Ka binding constant, 298 K
pKd: −log10 of the molar value.
PARAMETER: pKd

1) O=c1c(O[C@@H]2O[C@H](CO)[C@H](O)[C@H](O)[C@H]2O)c(-c2ccc(O)c(O)c2)oc2cc(O)cc(O)c12 [hyperoside]    4.61
2) O=c1cc(-c2ccc(O)c(O)c2)oc2cc(O[C@@H]3O[C@H](CO)[C@@H](O)[C@H](O)[C@H]3O)cc(O)c12 [luteoloside]    4.28
3) O=c1cc(-c2ccc(O)c(O)c2)oc2cc(O)cc(O)c12    4.08

====

In this section we review reported R0 values for a set of compounds.
# TARGET_OR_SYSTEM: porcine pancreatic elastase (PPE) (Sus scrofa, UniProt P00772)
# Construct: purchased Sigma-Aldrich (St. Louis, MO, United States)
# RUN_DESCRIPTION: Fluorescence resonance energy transfer and binding distance
# ASSAY_CONTEXT: [PPE] = [flavonoid] = 10 μM, 298 K
PARAMETER: R0 (nm)

1. O=c1c(O)c(-c2ccc(O)c(O)c2)oc2cc(O)cc(O)c12    1.91
2. O=c1cc(-c2ccc(O)c(O)c2)oc2cc(O[C@@H]3O[C@H](CO)[C@@H](O)[C@H](O)[C@H]3O)cc(O)c12 [luteoloside]    1.99
3. O=c1cc(-c2ccc(O)c(O)c2)oc2cc(O)cc(O)c12    1.97
4. O=c1c(O[C@@H]2O[C@H](CO)[C@H](O)[C@H](O)[C@H]2O)c(-c2ccc(O)c(O)c2)oc2cc(O)cc(O)c12 [hyperoside]    1.86

====

Measured α-helix (%) values are reported for all entries that follow.
# TARGET_OR_SYSTEM: porcine pancreatic elastase (PPE) (Sus scrofa, UniProt P00772)
# Construct: purchased Sigma-Aldrich (St. Louis, MO, United States)
# RUN_DESCRIPTION: CD spectroscopy, secondary structure of PPE
# ASSAY_CONTEXT: PPE 5 μM, flavonoid 2.5 μM, 298 K; PPE alone 7.50
PARAMETER: α-helix (%)

1) O=c1c(O[C@@H]2O[C@H](CO)[C@H](O)[C@H](O)[C@H]2O)c(-c2ccc(O)c(O)c2)oc2cc(O)cc(O)c12 [hyperoside]    6.30
2) O=c1c(O)c(-c2ccc(O)c(O)c2)oc2cc(O)cc(O)c12    6.36
3) O=c1cc(-c2ccc(O)c(O)c2)oc2cc(O[C@@H]3O[C@H](CO)[C@@H](O)[C@H](O)[C@H]3O)cc(O)c12 [luteoloside]    5.51
4) O=c1cc(-c2ccc(O)c(O)c2)oc2cc(O)cc(O)c12    6.54

====

# TARGET_OR_SYSTEM: porcine pancreatic elastase (PPE) (Sus scrofa, UniProt P00772)
# Construct: purchased Sigma-Aldrich (St. Louis, MO, United States)
# RUN_DESCRIPTION: Intrinsic fluorescence quenching of PPE: Stern-Volmer, binding constants, thermodynamics
# ASSAY_CONTEXT: 310 K
PARAMETER: Kq quenching rate constant

1. O=c1cc(-c2ccc(O)c(O)c2)oc2cc(O)cc(O)c12    0.98 10^12 L•mol^−1•s^−1
2. O=c1c(O)c(-c2ccc(O)c(O)c2)oc2cc(O)cc(O)c12    0.52 10^12 L•mol^−1•s^−1
3. O=c1c(O[C@@H]2O[C@H](CO)[C@H](O)[C@H](O)[C@H]2O)c(-c2ccc(O)c(O)c2)oc2cc(O)cc(O)c12 [hyperoside]    4.78 10^12 L•mol^−1•s^−1
4. O=c1cc(-c2ccc(O)c(O)c2)oc2cc(O[C@@H]3O[C@H](CO)[C@@H](O)[C@H](O)[C@H]3O)cc(O)c12 [luteoloside]    1.57 10^12 L•mol^−1•s^−1

====

Catalogue of inhibition at 22.5 µM values
# TARGET_OR_SYSTEM: porcine pancreatic elastase (PPE) (Sus scrofa)
# Construct: purchased Sigma-Aldrich (St. Louis, MO, United States)
# RUN_DESCRIPTION: Elastase inhibition assay, fluorescent substrate MeOSuc-Ala-Ala-Pro-Val-AMC
# Format: biochemical
# ASSAY_CONTEXT: read-out: Inhibition rate of PPE
PARAMETER: inhibition at 22.5 µM

1. O=c1cc(-c2ccc(O)c(O)c2)oc2cc(O[C@@H]3O[C@H](CO)[C@@H](O)[C@H](O)[C@H]3O)cc(O)c12 [luteoloside]    12.2%
2. O=c1c(O[C@@H]2O[C@H](CO)[C@H](O)[C@H](O)[C@H]2O)c(-c2ccc(O)c(O)c2)oc2cc(O)cc(O)c12 [hyperoside]    41.1%
3. O=c1c(O)c(-c2ccc(O)c(O)c2)oc2cc(O)cc(O)c12 [quercetin]    22.2%
4. O=c1cc(-c2ccc(O)c(O)c2)oc2cc(O)cc(O)c12 [luteolin]    54.3%

====

# TARGET_OR_SYSTEM: porcine pancreatic elastase (PPE) (Sus scrofa, UniProt P00772)
# Construct: purchased Sigma-Aldrich (St. Louis, MO, United States)
# RUN_DESCRIPTION: Intrinsic fluorescence quenching of PPE: Stern-Volmer, binding constants, thermodynamics
# ASSAY_CONTEXT: 303 K
Listed here: items and their measured Kq quenching rate constant.
PARAMETER: Kq quenching rate constant

1. O=c1cc(-c2ccc(O)c(O)c2)oc2cc(O)cc(O)c12    1.04 10^12 L•mol^−1•s^−1
2. O=c1cc(-c2ccc(O)c(O)c2)oc2cc(O[C@@H]3O[C@H](CO)[C@@H](O)[C@H](O)[C@H]3O)cc(O)c12 [luteoloside]    1.66 10^12 L•mol^−1•s^−1
3. O=c1c(O[C@@H]2O[C@H](CO)[C@H](O)[C@H](O)[C@H]2O)c(-c2ccc(O)c(O)c2)oc2cc(O)cc(O)c12 [hyperoside]    4.85 10^12 L•mol^−1•s^−1
4. O=c1c(O)c(-c2ccc(O)c(O)c2)oc2cc(O)cc(O)c12    0.58 10^12 L•mol^−1•s^−1

====

# TARGET_OR_SYSTEM: porcine pancreatic elastase (PPE) (Sus scrofa, UniProt P00772)
# Construct: purchased Sigma-Aldrich (St. Louis, MO, United States)
# RUN_DESCRIPTION: Intrinsic fluorescence quenching of PPE: Stern-Volmer, binding constants, thermodynamics
# ASSAY_CONTEXT: 298 K
PARAMETER: n number of binding sites

1. O=c1c(O[C@@H]2O[C@H](CO)[C@H](O)[C@H](O)[C@H]2O)c(-c2ccc(O)c(O)c2)oc2cc(O)cc(O)c12 [hyperoside]    1.58
2. O=c1c(O)c(-c2ccc(O)c(O)c2)oc2cc(O)cc(O)c12    1.13
3. O=c1cc(-c2ccc(O)c(O)c2)oc2cc(O)cc(O)c12    0.97
4. O=c1cc(-c2ccc(O)c(O)c2)oc2cc(O[C@@H]3O[C@H](CO)[C@@H](O)[C@H](O)[C@H]3O)cc(O)c12 [luteoloside]    0.95

====

# TARGET_OR_SYSTEM: porcine pancreatic elastase (PPE) (Sus scrofa)
# Construct: purchased Sigma-Aldrich (St. Louis, MO, United States)
# RUN_DESCRIPTION: Intrinsic fluorescence quenching of PPE: Stern-Volmer, binding constants, thermodynamics
# ASSAY_CONTEXT: 310 K
PARAMETER: n number of binding sites

1) O=c1cc(-c2ccc(O)c(O)c2)oc2cc(O)cc(O)c12    1.17
2) O=c1c(O[C@@H]2O[C@H](CO)[C@H](O)[C@H](O)[C@H]2O)c(-c2ccc(O)c(O)c2)oc2cc(O)cc(O)c12 [hyperoside]    1.35
3) O=c1cc(-c2ccc(O)c(O)c2)oc2cc(O[C@@H]3O[C@H](CO)[C@@H](O)[C@H](O)[C@H]3O)cc(O)c12 [luteoloside]    1.07
4) O=c1c(O)c(-c2ccc(O)c(O)c2)oc2cc(O)cc(O)c12    0.80

Reference source for all entries: paper PMC12633754
